molecular target: A2A receptor (human, wild-type) (Homo sapiens, UniProt P29274); construct: gene ADORA2A; wild-type human A2A; BacMam-transfected cells (CHO-K1 for the cAMP assay); assay: [3H]-ZM241385 radioligand competition, filtration; assay type: binding; conditions: read-out: A2A / pKi (± SD) (converted)
Sequence (P29274 whole entry): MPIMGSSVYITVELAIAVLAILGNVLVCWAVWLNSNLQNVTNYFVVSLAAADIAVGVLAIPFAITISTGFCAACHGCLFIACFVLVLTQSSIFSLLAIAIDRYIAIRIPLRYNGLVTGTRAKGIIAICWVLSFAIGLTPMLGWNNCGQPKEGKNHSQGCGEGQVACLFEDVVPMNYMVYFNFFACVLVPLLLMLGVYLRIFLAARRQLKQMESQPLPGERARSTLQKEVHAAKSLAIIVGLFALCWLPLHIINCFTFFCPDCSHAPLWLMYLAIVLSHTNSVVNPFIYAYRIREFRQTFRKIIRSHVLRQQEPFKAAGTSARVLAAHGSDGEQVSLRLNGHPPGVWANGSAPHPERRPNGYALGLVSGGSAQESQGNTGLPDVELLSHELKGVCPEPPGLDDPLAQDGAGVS
Each entry below carries its recorded log10 of Ki.
The base-10 logarithm of Ki, taken with Ki in nM, is what appears here.

Nc1nc(-c2ccc(O)cc2)c2cc(F)ccc2n1 :: 3.30
Nc1nc(-c2ccco2)nc2c1ccn2-c1ccncc1 :: 1.50
Nc1nc2cc(-c3ccoc3)cc(-c3ccco3)n2n1 :: 3.10
Nc1nc(-c2cccc(-n3ccnc3)n2)nc(-c2ccco2)n1 :: 1.70
Nc1cc(NCc2ccccc2F)nc(-c2ccccn2)n1 :: 3.10

Now for the molecule whose log10 of Ki we want.
For this molecule ( `Cc1ccc(-c2nc(N)nn2-c2ccccc2)cc1` ), measured log10 of Ki is 4.20
